- Protocol: Plasma pharmacokinetics after single intragastric administration in rats
- Assay type: in vivo, SD rat
- Measurement Conditions: both sexes, SD, rat, plasma, po; all rats (♂ and ♀), single gavage 10 mg/kg vs intravenous 2 mg/kg; read-out: F (mean absolute bioavailability)
Assay Endpoint: bioavailability

Documented bioavailability of CC(C)(O)[C@@H]1CC[C@](C)([C@H]2[C@@H](O)C[C@@]3(C)[C@@H]4C[C@H](O)[C@H]5C(C)(C)C(F)(F)CC[C@@]56C[C@@]46CC[C@]23C)O1 : 22%

====

- Protocol: Metabolic stability in human liver microsomes
- Assay type: in vitro ADME
- Measurement Conditions: human, liver microsomes; 5 μM compound, 1 mg/mL microsomes, 37° C.
Assay Endpoint: half-life at 5 µM (min)
Write the answer as a number in min, unit excluded.

Documented half-life at 5 µM of CC(C)(O)[C@@H]1CC[C@](C)([C@H]2[C@@H](O)C[C@@]3(C)[C@@H]4C[C@H](O)[C@H]5C(C)(C)C(F)(F)CC[C@@]56C[C@@]46CC[C@]23C)O1 : 438

====

- Protocol: Plasma pharmacokinetics after single intragastric administration in rats
- Type: in vivo, SD rat
- Measurement Conditions: female, rat, plasma, po; rats ♀, single gavage 10 mg/kg, Mean ± SD; read-out: Vz/F
Assay Endpoint: Vd/F (L/kg)
Write the answer as a number in L/kg, unit excluded.

Documented Vd/F of CC(C)(O)[C@@H]1CC[C@](C)([C@H]2[C@@H](O)C[C@@]3(C)[C@@H]4C[C@H](O)[C@H]5C(C)(C)C(F)(F)CC[C@@]56C[C@@]46CC[C@]23C)O1 : 15.8

====

- Protocol: Plasma pharmacokinetics after single intragastric administration in rats
- Assay type: in vivo, SD rat
- Measurement Conditions: male, rat, plasma, po; rats ♂, single gavage 10 mg/kg, Mean ± SD; read-out: Vz/F
Assay Endpoint: Vd/F (L/kg)
Write the answer as a number in L/kg, unit excluded.

Documented Vd/F of CC(C)(O)[C@@H]1CC[C@](C)([C@H]2[C@@H](O)C[C@@]3(C)[C@@H]4C[C@H](O)[C@H]5C(C)(C)C(F)(F)CC[C@@]56C[C@@]46CC[C@]23C)O1 [Compound 2] : 40

====

- Protocol: Pharmacokinetics of parent HHQ16 after single intragastric administration of compound 2 prodrugs in rats
- Assay type: in vivo, rat
- Measurement Conditions: HHQ16 (parent) measured in rats after single intragastric 10 mg/kg of prodrug (dose converted to HHQ16)
Assay Endpoint: Cmax (ng/mL)
Write the answer as a number in ng/mL, unit excluded.

Before answering, review these 3 worked examples.
Documented Cmax of CC(C)C(N)C(=O)OC1CC2C3(C)CC(O)C(C4(C)CCC(C(C)(C)O)O4)C3(C)CCC23CC32CCC(F)(F)C(C)(C)C12.Cl (mixture of isomers) : 451

Documented Cmax of Br.CC(C)(O)C1CCC(C)(C2C(O)CC3(C)C4CC(OC(=O)CN)C5C(C)(C)C(F)(F)CCC56CC46CCC23C)O1 (stereo not shown) : 510

Documented Cmax of CC(C)(O)[C@@H]1CC[C@@](C)([C@H]2[C@@H](O)C[C@@]3(C)[C@@H]4C[C@H](OC(=O)CNC(=O)CN)[C@H]5C(C)(C)C(F)(F)CC[C@@]56C[C@@]46CC[C@]23C)O1.Cl : 358

# input for lookup
Documented Cmax of CC(O)C(N)C(=O)OC1CC2C3(C)CC(O)C(C4(C)CCC(C(C)(C)O)O4)C3(C)CCC23CC32CCC(F)(F)C(C)(C)C12.Cl (stereo not shown) : 582

====

- Protocol: Plasma pharmacokinetics after single intravenous injection in rats
- Format: in vivo
- Measurement Conditions: female, rat, rats ♀, intravenous 2 mg/kg, Mean ± SD, read-out: MRT0-∞
Assay Endpoint: MRT inf (h)
Write the answer as a number in h, unit excluded.

Documented MRT inf of CC(C)(O)[C@@H]1CC[C@](C)([C@H]2[C@@H](O)C[C@@]3(C)[C@@H]4C[C@H](O)[C@H]5C(C)(C)C(F)(F)CC[C@@]56C[C@@]46CC[C@]23C)O1 : 2.03

====

Reported values of t1/2 for individual entries
- Protocol: Pharmacokinetics of parent HHQ16 after single intragastric administration of compound 2 prodrugs in rats
- Type: in vivo, rat
- Measurement Conditions: HHQ16 (parent) measured in rats after single intragastric 10 mg/kg of prodrug (dose converted to HHQ16)
Write the answer as a number in h, unit excluded.

Before answering, review these 8 worked examples.
Documented t1/2 of Br.CC(C)(O)C1CCC(C)(C2C(O)CC3(C)C4CC(OC(=O)CN)C5C(C)(C)C(F)(F)CCC56CC46CCC23C)O1 (stereo not drawn) : 5.2

Documented t1/2 of CC(C)(O)[C@@H]1CC[C@@](C)([C@H]2[C@@H](O)C[C@@]3(C)[C@@H]4C[C@H](OC(=O)[C@@H](N)CO)[C@H]5C(C)(C)C(F)(F)CC[C@@]56C[C@@]46CC[C@]23C)O1.Cl : 3.5

Documented t1/2 of CC(N)C(=O)N(C)CC(=O)OC1CC2C3(C)CC(O)C(C4(C)CCC(C(C)(C)O)O4)C3(C)CCC23CC32CCC(F)(F)C(C)(C)C12.Cl (stereo not drawn) : 5.6

Documented t1/2 of CC(C)C(N)C(=O)OC1CC2C3(C)CC(O)C(C4(C)CCC(C(C)(C)O)O4)C3(C)CCC23CC32CCC(F)(F)C(C)(C)C12.Cl (mixture of isomers) : 8.2

Documented t1/2 of CN(CC(=O)OC1CC2C3(C)CC(O)C(C4(C)CCC(C(C)(C)O)O4)C3(C)CCC23CC32CCC(F)(F)C(C)(C)C12)C(=O)C(N)Cc1ccccc1.Cl (stereo not drawn) : 6.2

Documented t1/2 of CC(O)C(N)C(=O)OC1CC2C3(C)CC(O)C(C4(C)CCC(C(C)(C)O)O4)C3(C)CCC23CC32CCC(F)(F)C(C)(C)C12.Cl (stereo not drawn) : 3.6

Documented t1/2 of CC(C)(O)[C@@H]1CC[C@@](C)([C@H]2[C@@H](O)C[C@@]3(C)[C@@H]4C[C@H](OC(=O)CNC(=O)[C@@H](N)CO)[C@H]5C(C)(C)C(F)(F)CC[C@@]56C[C@@]46CC[C@]23C)O1.Cl : 4.5

Documented t1/2 of CC(C)(O)[C@@H]1CC[C@@](C)([C@H]2[C@@H](O)C[C@@]3(C)[C@@H]4C[C@H](OC(=O)C[C@H]5CCCN5)[C@H]5C(C)(C)C(F)(F)CC[C@@]56C[C@@]46CC[C@]23C)O1.Cl : 3.98

# input for lookup
Documented t1/2 of CC(C)(O)[C@@H]1CC[C@@](C)([C@H]2[C@@H](O)C[C@@]3(C)[C@@H]4C[C@H](OC(=O)CNC(=O)CN)[C@H]5C(C)(C)C(F)(F)CC[C@@]56C[C@@]46CC[C@]23C)O1.Cl : 7.5

====

- Protocol: Plasma pharmacokinetics after single intragastric administration in rats
- Type: in vivo, SD rat
- Measurement Conditions: both sexes, rat, plasma, po; all rats (♂ and ♀), single gavage 10 mg/kg, Mean ± SD
Assay Endpoint: half-life (h)
Write the answer as a number in h, unit excluded.

Documented half-life of CC(C)(O)[C@@H]1CC[C@](C)([C@H]2[C@@H](O)C[C@@]3(C)[C@@H]4C[C@H](O)[C@H]5C(C)(C)C(F)(F)CC[C@@]56C[C@@]46CC[C@]23C)O1 : 2.89

====

- Protocol: Plasma pharmacokinetics after single intravenous injection in rats
- Format: in vivo
- Measurement Conditions: female, rat, rats ♀, intravenous 2 mg/kg, Mean ± SD
Assay Endpoint: AUC0-t (ng·h/mL)
Write the answer as a number in ng·h/mL, unit excluded.

Documented AUC0-t of CC(C)(O)[C@@H]1CC[C@](C)([C@H]2[C@@H](O)C[C@@]3(C)[C@@H]4C[C@H](O)[C@H]5C(C)(C)C(F)(F)CC[C@@]56C[C@@]46CC[C@]23C)O1 : 2120

====

- Protocol: Plasma pharmacokinetics after single intragastric administration in rats
- Format: in vivo, SD rat
- Measurement Conditions: female, rat, plasma, po; rats ♀, single gavage 10 mg/kg, Mean ± SD
Assay Endpoint: Cmax (ng/mL)
Write the answer as a number in ng/mL, unit excluded.

Documented Cmax of CC(C)(O)[C@@H]1CC[C@](C)([C@H]2[C@@H](O)C[C@@]3(C)[C@@H]4C[C@H](O)[C@H]5C(C)(C)C(F)(F)CC[C@@]56C[C@@]46CC[C@]23C)O1 [Compound 2] : 459

====

Reported values of Solubility for individual entries
- Protocol: Solubility test in water and FaSSIF
- Assay type: physicochemical
- Measurement Conditions: thermodynamic from solid; FaSSIF (pH 6.5), 37° C., up to 24 hours; read-out: Solubility
Provide a numeric answer, followed by its unit.

Documented Solubility of CC(C)(O)[C@@H]1CC[C@@](C)([C@H]2[C@@H](O)C[C@@]3(C)[C@@H]4C[C@H](OC(=O)[C@@H](N)CC(=O)O)[C@H]5C(C)(C)C(F)(F)CC[C@@]56C[C@@]46CC[C@]23C)O1 [Compound 2-24] : 5450 µg/mL

Documented Solubility of CC(C)(O)[C@@H]1CC[C@](C)([C@H]2[C@@H](O)C[C@@]3(C)[C@@H]4C[C@H](O)[C@H]5C(C)(C)C(F)(F)CC[C@@]56C[C@@]46CC[C@]23C)O1 [Compound 2] : 15 µg/mL

Documented Solubility of CC(C)(O)[C@@H]1CC[C@@](C)([C@H]2[C@@H](O)C[C@@]3(C)[C@@H]4C[C@H](OC(=O)COCCOCCOCCO)[C@H]5C(C)(C)C(F)(F)CC[C@@]56C[C@@]46CC[C@]23C)O1 [Compound 2-13] : 1150 µg/mL
